I'd be grateful if you could share measured IC50 for these entries.
Tested on: KB
Experiment: Antiproliferative activity against KB cell
Assay type: functional, cell-based
Conditions: Homo sapiens
Numbers only, in µM.

CSc1nc2cnsc2[nH]1 15

Now examine the next entry.
INPUT: Given the compound CSc1nc2c(C)nsc2[nH]1 , what is its reported IC50?
OUTPUT: 60

====

Test system: KB
Assay: Antiproliferative activity against KB cell
Format: functional, cell-based
Conditions: Homo sapiens
Mark Yes only when IC50 stays strictly below 9 µM. Values equal to the cut-off are No.

Compound	Group label
CSc1nc2sncc2n1[C@@H]1O[C@H](CO)[C@@H](O)[C@@H]1O	No
CSc1nc2snc(C)c2n1[C@H]1C[C@H](O)[C@@H](CO)O1	No
Cc1nsc2ncn(C3O[C@H](CO)[C@@H](O)[C@H]3O)c12 (some centres not stated)	No

INPUT: Given the entry Cc1nsc2c1nc(SCc1ccccc1)n2[C@@H]1O[C@H](CO)[C@@H](O)[C@H]1O , would its reported IC50 be below 9 µM?
OUTPUT: No

INPUT: Given the entry OC[C@H]1OC(n2c(SCc3ccccc3)nc3cnsc32)[C@@H](O)[C@@H]1O (some centres not stated) , would its reported IC50 be below 9 µM?
OUTPUT: No

INPUT: Given the entry Cc1nsc2c1ncn2[C@@H]1O[C@H](CO)[C@@H](O)[C@H]1O , would its reported IC50 be below 9 µM?
OUTPUT: No

INPUT: Given the entry OC[C@H]1O[C@@H](n2c(SCc3ccccc3)nc3cnsc32)C[C@@H]1O , would its reported IC50 be below 9 µM?
OUTPUT: No

INPUT: Given the entry Cc1nsc2c1ncn2[C@@H]1O[C@H](CO)[C@@H](O)[C@@H]1O , would its reported IC50 be below 9 µM?
OUTPUT: No

====

I'd be grateful if you could share measured IC50 for these entries.
Tested on: Human betaherpesvirus 5
Assay: Antiviral activity against human cytomegalovirus (HCMV) in plaque reduction assay
Type: functional, organism-based
Numbers only, in µM.

A selection of reference data follows.
Compound	Unit of measurement	Assay result
Cc1nsc2ncn(C3O[C@H](CO)[C@@H](O)[C@H]3O)c12 (some centres not stated)	µM	32
CSc1nc2c(C)nsc2[nH]1	µM	18
CSc1nc2cnsc2[nH]1	µM	32

Below is a list of compounds. For each, state its recorded IC50.
1. CSc1nc2sncc2n1[C@H]1C[C@H](O)[C@@H](CO)O1
2. Cc1nsc2[nH]cnc12
3. CSc1nc2sncc2n1[C@@H]1O[C@H](CO)[C@@H](O)[C@@H]1O
4. c1ccc(CSc2nc3cnsc3[nH]2)cc1
5. Cc1nsc2[nH]c(SCc3ccccc3)nc12
6. OC[C@H]1OC(n2c(SCc3ccccc3)nc3sncc32)[C@@H](O)[C@@H]1O (some centres not stated)
7. OC[C@H]1O[C@@H](n2c(SCc3ccccc3)nc3sncc32)C[C@@H]1O

OUTPUT:
[22, 32, 32, 21, 21, 3.2, 3.2]

Below is a list of compounds. For each, state its recorded IC50.
1. CSc1nc2sncc2n1[C@@H]1O[C@H](CO)[C@@H](O)[C@H]1O
2. CSc1nc2snc(C)c2n1[C@H]1C[C@H](O)[C@@H](CO)O1

OUTPUT:
32
32

====

Test system: KB
Assay: Antiproliferative activity against KB cell
Assay type: functional, cell-based
Conditions: Homo sapiens
Quantity kind: IC50

A selection of reference data follows.
CSc1nc2c(C)nsc2n1[C@H]1C[C@H](O)[C@@H](CO)O1 > 100 µM
Cc1nsc2ncn([C@H]3C[C@H](O)[C@@H](CO)O3)c12 > 100 µM

Now examine the next entry.
INPUT: Given the compound CSc1nc2c(C)nsc2n1[C@@H]1O[C@H](CO)[C@@H](O)[C@H]1O , what is its reported IC50?
OUTPUT: > 100 µM

====

Test system: KB
Experiment: Antiproliferative activity against KB cell
Assay type: functional, cell-based
Settings: Homo sapiens
Quantity kind: IC50 (µM)
Numbers only, in µM.

A selection of reference data follows.
Compound	IC50, µM
OC[C@H]1OC(n2c(SCc3ccccc3)nc3sncc32)[C@@H](O)[C@@H]1O (some centres undefined)	3
Cc1nsc2[nH]c(SCc3ccccc3)nc12	9
CSc1nc2sncc2n1[C@H]1C[C@H](O)[C@@H](CO)O1	6

Below is a list of compounds. For each, state its recorded IC50.
1. OC[C@H]1O[C@@H](n2c(SCc3ccccc3)nc3sncc32)C[C@@H]1O
2. c1ccc(CSc2nc3cnsc3[nH]2)cc1
3. CSc1nc2sncc2n1[C@@H]1O[C@H](CO)[C@@H](O)[C@H]1O
4. Cc1nsc2[nH]cnc12

OUTPUT:
1. 3
2. 0.2
3. 15
4. 20
